System Name: EP2 (Homo sapiens)
Sequence (P43116 whole entry): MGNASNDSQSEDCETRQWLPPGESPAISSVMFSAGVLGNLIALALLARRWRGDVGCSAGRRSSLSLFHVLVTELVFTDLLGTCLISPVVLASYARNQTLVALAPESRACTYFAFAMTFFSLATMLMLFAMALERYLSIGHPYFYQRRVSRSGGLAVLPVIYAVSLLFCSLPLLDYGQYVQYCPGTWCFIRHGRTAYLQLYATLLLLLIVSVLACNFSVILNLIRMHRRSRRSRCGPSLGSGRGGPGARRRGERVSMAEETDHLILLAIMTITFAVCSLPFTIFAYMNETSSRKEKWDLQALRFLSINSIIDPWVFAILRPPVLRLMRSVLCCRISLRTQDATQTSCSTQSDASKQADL
Assay Explanation: EP2 cAMP EC50 (Table 1)
Assay type: cell-based
pEC50: −log10 of the molar value.
Readout Type: pEC50

1. CC(C)(C)OC(=O)CCc1cccc(CN(Cc2ccc(-c3cccnc3)cc2)S(=O)(=O)c2ccccc2)c1 [Example 4] :: 8.27
2. CC(C)(C)OC(=O)c1ccc(CCCN(CCCOc2cc(Cl)cc(Cl)c2)S(C)(=O)=O)s1 [Example 10] :: 8.09
3. CC(C)OC(=O)CCc1cccc(CN(Cc2ccc(-n3cccn3)cc2)S(=O)(=O)c2nccs2)c1 [Example 25] :: 8.23
4. CC(C)OC(=O)Cc1cccc(CN(Cc2ccc(-c3ncccn3)cc2)S(=O)(=O)c2cccnc2)c1 [Example 17] :: 8.11

* * *

System Name: EP2 (Homo sapiens)
Assay Explanation: EP2 cAMP EC50 (Table 1)
Type: cell-based
Readout Type: EC50 (nM)

# example entries with known answers
1) CC(C)OC(=O)COc1cccc(CN(Cc2ccc(-c3ncccn3)cc2)S(=O)(=O)c2cccnc2)c1 :: 5.4
2) COC(=O)COc1cccc(CN(Cc2ccc(-n3cccn3)cc2)S(=O)(=O)c2cccnc2)c1 :: 1.48
3) CC(C)OC(=O)c1ccc(CCCN(CCCOc2cc(Cl)cc(Cl)c2)S(C)(=O)=O)s1 :: 8.15
4) CC(C)OC(=O)COc1cccc(CN(Cc2ccc(-c3ccccn3)cc2)S(=O)(=O)c2cccnc2)c1 :: 4.1
5) CC(C)OC(=O)CCc1cccc(CN(Cc2ccc(-c3ncccn3)cc2)S(=O)(=O)c2ccccn2)c1 :: 4.9
6) CCOC(=O)COc1cccc(CN(Cc2ccc(-n3cccn3)cc2)S(=O)(=O)c2cccnc2)c1 :: 10

I. CC(C)OC(=O)CCc1cccc(CN(Cc2ccc(-c3ncccn3)cc2)S(=O)(=O)c2ccc(Cl)cc2)c1
II. CC(C)OC(=O)CCc1cccc(CN(Cc2ccc(-c3ncccn3)cc2)S(=O)(=O)c2nccs2)c1
// query Please state the entry with greater EC50 among I and II . Give the chosen item's label as your response.
// result II
(II: 6.4 nM, I: 3.3 nM)

A. CC(C)OC(=O)CCc1cccc(CN(Cc2ccc(-c3ncccn3)cc2)S(=O)(=O)c2ccccc2)c1
B. CC(C)OC(=O)c1csc(CCCN(CCOc2cc(Cl)cc(Cl)c2)S(C)(=O)=O)n1
C. CC(C)OC(=O)COc1cccc(CN(Cc2ccc(-c3nccs3)cc2)S(=O)(=O)c2cccnc2)c1
D. CC(C)OC(=O)CCc1cccc(CN(Cc2ccc(-n3cccn3)cc2)S(=O)(=O)c2cccnc2)c1
// query Please give the order of these compounds when sorted by EC50, largest value leading. Answer format: the labels, in the requested order.
// result D, B, A, C

1. CC(C)OC(=O)c1csc(CCCN(CCCc2cccc(Cl)c2)S(C)(=O)=O)n1
2. CC(C)OC(=O)COc1cccc(CN(Cc2ccc(-c3nccs3)cc2)S(=O)(=O)c2cn(C)cn2)c1
// query // compare measured EC50 between 1 and 2 ; output the lower one Lab log: write the label of the selected item as the result.
// result 2
(2: 12 nM, 1: 54 nM)

1. CC(C)OC(=O)CCCCCCN(CCCc1cc(Cl)cc(Cl)c1)S(C)(=O)=O
2. CC(C)OC(=O)COc1cccc(CN(Cc2ccc(-n3cccn3)cc2)S(=O)(=O)c2cccnc2)c1
// query Looking only at measured EC50, which entry is lower, 1 or 2 ? Field: selected label. Fill in the label of the entry you choose.
// result 2
(2: 1.48 nM, 1: 7 nM)
